Molecular target: human PD-L1 (Homo sapiens (Human))
Test: T cell activation luciferase reporter cell culture system (T Cell Activation Assay)
Format: cell-based
Conditions: luciferase reporter assay; PD-L1 aAPC/CHO-K1 cells with PD-1 effector Jurkat T cells
Sorting guide: entries reporting EC50 beneath 60 nM go in the true pile, the rest go in the false pile.

[[record]]
compound = "COc1cc(-c2nccc(-c3cccc(-c4ccc(CN5CC6(CNC6)C5)c(OC)n4)c3Cl)c2Cl)ccc1CN1CC2(CNC(=O)C2)C1 [Example 520]"
test_target = "human PD-L1 (Homo sapiens (Human))"
assigned_category = "false"

[[record]]
compound = "COc1cc(-c2nccc(-c3cccc(-c4ccc(CN5CC6(C5)CN(C(C)=O)C6)c(OC)n4)c3C)c2C)ccc1CN1CC2(C1)CN(C(C)=O)C2 [Example 416]"
test_target = "human PD-L1 (Homo sapiens (Human))"
assigned_category = "false"

[[record]]
compound = "COc1cc(-c2nccc(-c3cccc(-c4ccc(CN5CC6(CNC(=O)C6)C5)c(OC)n4)c3Cl)c2F)ccc1CN1CC2(CNC(=O)C2)C1 [Example 324]"
test_target = "human PD-L1 (Homo sapiens (Human))"
assigned_category = "true"

[[record]]
compound = "COc1cc(-c2nccc(-c3cccc(-c4ccc(CNC5CCN(C(C)=O)CC5)c(OC)n4)c3Cl)c2Cl)ccc1CNCC(F)F [Example 513]"
test_target = "human PD-L1 (Homo sapiens (Human))"
assigned_category = "false"

[[record]]
compound = "COCC(=O)N1CCC(NCc2ccc(-c3nccc(-c4cccc(-c5ccc(CNC6CCN(C(=O)COC)CC6)c(OC)n5)c4Cl)c3Cl)cc2OC)CC1 [Example 397]"
test_target = "human PD-L1 (Homo sapiens (Human))"
assigned_category = "true"

[[record]]
compound = "CNCc1ccc(-c2cccc(-c3ccnc(-c4ccc(CNCCC(=O)O)c(OC)c4)c3Cl)c2Cl)nc1OC [Compound 221]"
test_target = "human PD-L1 (Homo sapiens (Human))"
assigned_category = "false"

[[record]]
compound = "COc1nc(-c2cccc(-c3ccnc(-c4cc(OC)c5nc(CN[C@H]6CC[C@H](O)CC6)nn5c4)c3Cl)c2Cl)ccc1CNC[C@@H]1CCC(=O)N1 [Example 260]"
test_target = "human PD-L1 (Homo sapiens (Human))"
assigned_category = "true"

[[record]]
compound = "COc1nc(-c2cccc(-c3ccnc(-c4ccc5c(c4)CCC[C@H]5NC[C@@H]4CCC(=O)N4)c3Cl)c2Cl)ccc1CN[C@@H](CCO)C(=O)O [Example 265]"
test_target = "human PD-L1 (Homo sapiens (Human))"
assigned_category = "false"


Bench note: check whether COc1cc(-c2nccc(-c3cccc(-c4ccc(CN5CC6(CNC(=O)C6)C5)c(OC)n4)c3Cl)c2Cl)ccc1CN1CC2(CC(O)C2)C1 [Example 497] shows EC50 below 60 nM true

Follow-up item: COC(=O)[C@H](CCO)NCc1ncc(-c2nccc(-c3cccc(-c4ccc(CNC[C@@H]5CCC(=O)N5)c(OC)n4)c3Cl)c2Cl)cc1OC [Compound 267] false

Follow-up item: CCC(=O)N1CCC(NCc2ccc(-c3cccc(-c4ccnc(-c5cc(F)c(CNC6CCN(C(=O)CC)CC6)c(OC)c5)c4Cl)c3Cl)nc2OC)CC1 [Example 331] true

* * *

Biological target: human PD-L1 (Homo sapiens (Human), UniProt Q9NZQ7)
Sequence (Q9NZQ7 19-290): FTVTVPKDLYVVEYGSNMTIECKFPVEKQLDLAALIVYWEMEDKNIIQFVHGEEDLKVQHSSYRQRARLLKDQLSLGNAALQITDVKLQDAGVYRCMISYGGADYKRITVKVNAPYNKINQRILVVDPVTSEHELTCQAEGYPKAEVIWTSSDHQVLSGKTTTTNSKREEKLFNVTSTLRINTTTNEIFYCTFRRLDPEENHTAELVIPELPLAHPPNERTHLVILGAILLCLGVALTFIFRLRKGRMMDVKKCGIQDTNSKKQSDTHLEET
Assay: T cell activation luciferase reporter cell culture system (T Cell Activation Assay)
Format: cell-based
Details: luciferase reporter assay; PD-L1 aAPC/CHO-K1 cells with PD-1 effector Jurkat T cells
result_type: pEC50
// pEC50 is dimensionless: -log10 of concentration (M)

Example entries and their recorded answers appear below.
[[record]]
molecule = "COc1nc(-c2cccc(-c3ccnc(-c4cc(Cl)c5c(c4)CCN(CC4COC4)C5)c3Cl)c2Cl)ccc1CNC[C@@H]1CCC(=O)N1 [Example 307]"
test_target = "human PD-L1 (Homo sapiens (Human), UniProt Q9NZQ7)"
value_measured = 6.73

[[record]]
molecule = "COc1cc(-c2nccc(-c3cccc(NC(=O)c4ccc(CNC[C@@H]5CCC(=O)N5)cn4)c3C)c2Cl)ccc1CNC1CCN(C(C)=O)CC1 [Example 747]"
test_target = "human PD-L1 (Homo sapiens (Human), UniProt Q9NZQ7)"
value_measured = 6.08

[[record]]
molecule = "COc1nc(-c2cccc(-c3ccnc(-c4cc(OC)c5nc(CNCCO)nn5c4)c3Cl)c2Cl)ccc1CNC1CCN(C(C)=O)CC1 [Example 654]"
test_target = "human PD-L1 (Homo sapiens (Human), UniProt Q9NZQ7)"
value_measured = 7.08


Value lookup for pEC50; key = COc1cc(-c2nccc(-c3cccc4c3CC[C@@H]4Oc3nc(OC)c(CNC[C@H](C)O)cc3C(F)(F)F)c2Cl)ccc1CNC[C@H](C)O [Example 270] 7.07

Follow-up item: COc1cc(-c2nccc(-c3cccc(-c4ccc(CN5CC6(C5)CN(C(C)=O)C6)c(OC)n4)c3Cl)c2Cl)ccc1CNC1CCOCC1 [Example 511] 7.68
